Assay Name: Stability in rat plasma
Format: in vitro ADME
Recorded Conditions: after 4 hours, 37° C.
Procedure: In order to evaluate the stability to circulating enzymes, test compounds were incubated in human and rat plasma at 37° C. in a thermostated oscillating bath. Each test compound was incubated at μM (50 μM when the samples were analysed by UV/HPLC, 1 or 2 μM when the samples were analysed by LC-MS/MS) concentration for 0, 15, 30 min and 1, 2 and 4 hours. […] The percentages of amount remaining at the various times of incubation with respect to initial amount were calculated. […]
Measurement Name: residual percentage in rat plasma (%)

structure=O=C(NO)c1cc(F)c(Cn2nnnc2Cc2ccccn2)c(F)c1.O=C(O)C(F)(F)F units=% observed=78
structure=O=C(NO)c1cc(F)c(Cn2nnnc2-c2scc3c2OCCO3)c(F)c1 units=% observed=97
structure=O=C(NO)c1ccc(Cc2noc(-c3ccccc3)n2)cc1 units=% observed=78
structure=O=C(NO)c1ccc(Cc2nnc(-c3ccccc3)s2)cc1 units=% observed=73
structure=CN1CCN(Cc2ccc(-c3nnc(Sc4c(F)cc(C(=O)NO)cc4F)n3C)o2)CC1 units=% observed=89
structure=O=C(NO)c1cc(F)c(Sc2nnc(-c3cnccn3)n2Cc2ccco2)c(F)c1 units=% observed=90
structure=Cn1c(Sc2c(F)cc(C(=O)NO)cc2F)nnc1-c1ccc2ccccc2n1 units=% observed=94
structure=Cn1c(Sc2c(F)cc(C(=O)NO)cc2F)nnc1-c1ccc(CN2CCOCC2)o1 units=% observed=89
structure=O=C(NO)c1cc(F)c(Cc2nnc(-c3cncc(N4CCOCC4)c3)s2)c(F)c1 units=% observed=82
structure=O=C(NO)c1ccc(Sc2nnc(-c3c[nH]c4ccccc34)n2Cc2ccco2)cc1 units=% observed=77
structure=O=C(NO)c1cc(F)c(Sc2nnc(-c3ccccc3)o2)c(F)c1 units=% observed=90
structure=O=C(NO)c1ccc(Sc2nnc(-c3ccccc3)o2)cc1 units=% observed=93
structure=CCc1oc(-c2nnc(Sc3c(F)cc(C(=O)NO)cc3F)n2C)cc1CN1CCCC1 units=% observed=81
structure=COc1ccc(-c2nnc(Cc3ccc(C(=O)NO)cc3)o2)cc1OC units=% observed=94
structure=Cn1c(Sc2c(F)cc(C(=O)NO)cc2F)nnc1-c1ccc(CCN2CCCC2)nc1 units=% observed=84
structure=CN(c1ccc(-c2nnc(Sc3c(F)cc(C(=O)NO)cc3F)s2)cc1)S(C)(=O)=O units=% observed=101
structure=O=C(NO)c1cc(F)c(Cn2nnnc2-c2nccc3ccccc23)c(F)c1 units=% observed=75
structure=O=C(NO)c1cc(F)c(Sc2nnc(-c3ccccc3F)n2Cc2ccco2)c(F)c1 units=% observed=79

Data origin, for the record: patent US11351178B2
